Each recorded value in this set is attributed to PubChem BioAssay.

The following compounds are listed with their measured composite z-score values.
assaySystem: Dihydroorotate dehydrogenase (quinone), mitochondrial (Plasmodium falciparum (isolate 3D7)) (UniProt Q08210)
Sequence (Q08210 whole entry, looked up): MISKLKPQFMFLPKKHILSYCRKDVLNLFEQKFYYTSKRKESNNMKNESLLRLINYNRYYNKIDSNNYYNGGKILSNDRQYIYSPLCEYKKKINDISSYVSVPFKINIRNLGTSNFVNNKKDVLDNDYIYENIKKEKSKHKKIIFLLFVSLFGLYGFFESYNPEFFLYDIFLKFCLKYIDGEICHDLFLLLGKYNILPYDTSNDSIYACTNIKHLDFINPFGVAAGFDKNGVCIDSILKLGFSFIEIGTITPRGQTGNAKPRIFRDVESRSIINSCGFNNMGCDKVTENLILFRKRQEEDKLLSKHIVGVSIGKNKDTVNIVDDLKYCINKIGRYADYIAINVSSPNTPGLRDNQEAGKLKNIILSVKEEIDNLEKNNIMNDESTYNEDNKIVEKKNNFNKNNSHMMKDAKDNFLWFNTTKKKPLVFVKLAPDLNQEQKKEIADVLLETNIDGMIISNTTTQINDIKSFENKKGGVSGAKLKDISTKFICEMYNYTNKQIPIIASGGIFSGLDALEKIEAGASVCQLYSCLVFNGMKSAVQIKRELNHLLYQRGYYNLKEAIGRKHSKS
assay: PfDHODH enzyme inhibitors, primary screen, biochemical, C-terminal His tag, absorbance 600 nm (AID 1175);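 further: recombinant parasite enzyme with a five histidine tag at its C terminus; test concentration not given here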
conditionContext: DCIP absorbance 600 nm, higher = more signal, called active from +8 up or from −8 down
propertyLabel: composite z-score

{"columns": ["compound", "propertyLabel", "obsValue"],
 "data": [
  ["COc1ccc([Si](C)(C)[C@@H]2[C@@H](CC(=O)N(CCO)Cc3ccccc3)O[C@]3(C(=O)N(c4ccccc4)c4ccccc43)[C@H]2C)cc1", "composite z-score", 0.818],
  ["C=CCC(OC(C)=O)[C@@H]1[C@@H](N(Cc2cccc3ccccc23)C(=O)c2cccc3ccccc23)c2cc(OCCCO)ccc2N1C(=O)c1ccc(-c2ccccc2)cc1 (stereo partly drawn)", "composite z-score", 0.136],
  ["CCOc1cc(C(O)C2C=CC3C(=O)N(C)C(=O)C3N2Nc2ccccc2)ccc1O (stereo not drawn)", "composite z-score", 0.684],
  ["COCCOC(=O)N1C(=O)[C@@]2(c3cc(C#CCCO)ccc31)[C@H](C(=O)Nc1nc3ccccc3s1)[C@H]1C(=O)O[C@H](c3ccccc3)[C@H](c3ccccc3)N1[C@@H]2c1ccccc1OCCO", "composite z-score", 1.1],
  ["COC(=O)[C@@]1(Cc2ccc(OC)cc2)[C@H]2c3cc(C(=O)N4CCCC4)n(Cc4cccc5ccccc45)c3C[C@H]2CN1C(=O)c1ccccc1", "composite z-score", 0.237],
  ["COC(=O)[C@@]1(Cc2ccccc2)[C@H]2c3cc(C(=O)N(C)C)n(CCN4CNCC4=O)c3C[C@H]2CN1C(=O)c1ccccc1", "composite z-score", 0.0849],
  ["COC(=O)[C@@]1(Cc2ccc(OC)cc2)[C@H]2c3cc(C(=O)N(C)C)n(Cc4ccc(Cl)c(C(F)(F)F)c4)c3C[C@H]2CN1C(=O)c1ccccc1", "composite z-score", 0.381],
  ["COCCOC(=O)N1C(=O)[C@@]2(c3cc(C#Cc4ccc(OC)cc4)ccc31)[C@H](c1ccc(O)cc1)N1[C@H](c3ccccc3)[C@H](c3ccccc3)OC(=O)[C@H]1[C@@H]2C(=O)N1CCCCCCC1", "composite z-score", -0.15],
  ["CO[C@H]1O[C@H](CO)[C@@H](OC(=O)Nc2ccccc2-c2ccccc2)[C@H](OC(=O)Nc2ccc3c(c2)OCO3)[C@H]1OC(=O)Nc1ccc2c(c1)OCO2", "composite z-score", -0.763],
  ["O=C1C2C=CC(C(O)c3ccc(F)cc3)N(n3cnnc3)C2C(=O)N1Cc1ccccc1 (stereo not drawn)", "composite z-score", -0.188],
  ["CCCNC(=O)[C@@]1(c2ccc([N+](=O)[O-])cc2)CC(=O)N(C2CCCCC2)[C@@H]1c1ccc(CO)cc1", "composite z-score", 0.666],
  ["COc1ccc(NC(=O)O[C@H]2[C@H](OC(=O)Nc3ccccc3)[C@H](OC(=O)Nc3ccccc3)[C@@H](OC)O[C@@H]2CO)cc1", "composite z-score", 1.59],
  ["O=C1C=C(c2ccccc2)C(=O)c2ccc([C@H]3Oc4ccccc4S(=O)(=O)N4CCC[C@@H]34)cc21", "composite z-score", -5.82]
]}
